# System: THP-1
Measured parameter: CC50

INSERT INTO measurements (chemical_string, value_reported) VALUES
  ('C[As](=O)(O)CC[C@H](N)C(=O)O', '> 250 µM');

###

# Test system: Caco-2
Measured parameter: CC50

INSERT INTO measurements (chemical_string, value_reported) VALUES
  ('C[As](=O)(O)CC[C@H](N)C(=O)O', '150 to 200 µM');

###

# System: HEK293
Measured parameter: CC50

INSERT INTO measurements (compound, value_reported) VALUES
  ('C[As](=O)(O)CC[C@H](N)C(=O)O [AST]', '> 250 µM');

###

# Test system: HepG2
Measured parameter: CC50

INSERT INTO results (chemical_string, value_reported) VALUES
  ('C[As](=O)(O)CC[C@H](N)C(=O)O', '> 250 µM');

###

# System tested: P. falciparum GS-I (PfGS-I) (Plasmodium falciparum, UniProt W7JM41)
# Sequence (W7JM41 1-544): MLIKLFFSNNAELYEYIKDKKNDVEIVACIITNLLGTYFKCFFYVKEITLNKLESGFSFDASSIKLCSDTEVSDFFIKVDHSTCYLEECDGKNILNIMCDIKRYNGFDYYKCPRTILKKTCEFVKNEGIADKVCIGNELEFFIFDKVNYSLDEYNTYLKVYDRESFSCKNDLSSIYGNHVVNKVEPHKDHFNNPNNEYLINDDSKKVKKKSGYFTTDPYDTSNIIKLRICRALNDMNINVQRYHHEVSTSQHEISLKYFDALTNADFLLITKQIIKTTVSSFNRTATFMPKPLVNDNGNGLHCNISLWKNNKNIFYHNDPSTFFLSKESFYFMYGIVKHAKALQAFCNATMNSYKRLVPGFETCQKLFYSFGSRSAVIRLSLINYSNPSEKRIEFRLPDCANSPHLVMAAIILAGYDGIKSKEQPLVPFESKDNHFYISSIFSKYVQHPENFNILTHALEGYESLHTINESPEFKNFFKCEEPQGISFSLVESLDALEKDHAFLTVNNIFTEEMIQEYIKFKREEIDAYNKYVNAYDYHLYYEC
# Assay info: Glutamine synthetase assay, purified MBP-fused PfGS-I (Glutamine/Glutamate-GLO)
Measured parameter: EC50 (nM)

INSERT INTO results (compound, system_tested, measured_parameter, value_reported) VALUES
  ('C[As](=O)(O)CC[C@H](N)C(=O)O [AST]', 'P. falciparum GS-I (PfGS-I) (Plasmodium falciparum, UniProt W7JM41)', 'EC50', 400);
